experiment: Ratio of rate of catalysis to Michaelis-Menten constant was determined
PROPERTY: log10 Ratio (log10 of the value in M⁻¹ s⁻¹)
Hey, these are logged values: log10 of Ratio, M⁻¹ s⁻¹ being the unit before logging.

Recorded log10 Ratio, per entry:
CC(C)C[C@H](NC(=O)OCc1ccccc1)C(=O)N[C@@H](CCCN=C(N)N)C(=O)Nc1ccc2c(C(F)(F)F)cc(=O)oc2c1	2.18
Cc1cc(=O)oc2cc(NC(=O)[C@H](CCCN=C(N)N)NC(=O)[C@H](CC(C)C)NC(=O)OCc3ccccc3)ccc12	2.02
Cc1cc(=O)oc2cc(NC(=O)[C@H](NC(=O)[C@H](CC(C)C)NC(=O)[C@H](CC(C)C)NC(=O)CCC(=O)O)C(C)C)ccc12	2.15
Cc1cc(=O)oc2cc(NC(=O)[C@@H](Cc3ccc(O)cc3)NC(=O)[C@H](NC(=O)[C@H](CC(C)C)NC(=O)[C@H](CC(C)C)NC(=O)CCC(=O)O)C(C)C)ccc12	2.42

# input molecule: Cc1cc(=O)oc2cc(NC(=O)[C@@H](CCCCN)NC(=O)[C@H](CC(C)C)NC(=O)[C@@H](NC(=O)OC(C)(C)C)C(C)C)ccc12 ; wanted: its log10 Ratio
1.92

What measured log10 Ratio goes with COc1ccc2cccc(NC(=O)[C@H](CCCN=C(N)N)NC(=O)[C@H](CC(C)C)NC(=O)OCc3ccccc3)c2c1 ?
3.15
